protocol: in vitro
test parameters: human, Caco-2
reported metric: selectivity ratio at 72 h

| molecule | reported |
| --- | --- |
| O=c1[nH]cc(F)c(=O)[nH]1 [Compound 5-FU, 5-fluorouracil, reference compound] | 2.76 |

Task: Need selectivity ratio at 72 h of C[C@]12CC=C3c4ccc(O)cc4CCC3C1CCC2=NO (some centres unmarked) , thanks.
Output: 1.27
